test system: oat, wild; assay: Test C postemergence; format: in vivo, Avena fatua; conditions: Postemergence, 125 g ai/ha; 0 to 100 scale (0 no effect, 100 complete control), 10 days
Source text: […]
So I've got a bunch of molecules here, and I need their Plant response rating, Oat, Wild values.
Give a plain numeric answer without units written out.

[ask] Hello, please tell me recorded Plant response rating, Oat, Wild for this one: Cc1ccc(-n2cnc(C(C)C)n2)cc1C(=O)N1CC(C(F)(F)F)Oc2c(Cl)cccc21 (stereo not shown)
[reply] 60

[ask] Hello, please tell me recorded Plant response rating, Oat, Wild for this one: Cc1cccc2c1OC(C(F)(F)F)CN2C(=O)c1cccc(-n2cnc(C(C)C)n2)c1 (racemic) [Compound 301]
[reply] 20

[ask] Hello, please tell me recorded Plant response rating, Oat, Wild for this one: "CCOC[C@H]1CN(C(=O)c2cc(-n3cnc(C(C)C)n3)cc3c2OCCO3)c2cccc(Cl)c2O1"
[reply] 20

[ask] Hello, please tell me recorded Plant response rating, Oat, Wild for this one: "COC(C)(C)c1ncn(-c2ccc(C)c(C(=O)N3C[C@H](C)Oc4c(Cl)cccc43)c2)n1"
[reply] 60

====

So I've got a bunch of molecules here, and I need their Plant response rating, Blackgrass values.
test system: blackgrass; assay: Test C postemergence; type: in vivo, Alopecurus myosuroides; settings: 500 g ai/ha, postemergence, 10 days, 0 to 100 scale (0 no effect, 100 complete control)
Give a plain numeric answer without units written out.

[ask] Hello, please tell me recorded Plant response rating, Blackgrass for this one: Cc1ccc(-n2cnc(C(C)C)n2)cc1C(=O)N1CC(C(F)(F)F)Oc2c(Cl)cccc21 (single isomer, unassigned) [Compound 291]
[reply] 50

[ask] Hello, please tell me recorded Plant response rating, Blackgrass for this one: Cc1ccc(-n2cnc(C(C)C)n2)cc1C(=O)N1CC(C(F)(F)F)Oc2c(Cl)cccc21 (stereo not drawn) [Compound 354]
[reply] 20

[ask] Hello, please tell me recorded Plant response rating, Blackgrass for this one: "COc1ccc(-n2cnc(C3CC3)n2)cc1C(=O)N1C[C@H](C)Oc2c(Cl)cccc21"
[reply] 90

[ask] Hello, please tell me recorded Plant response rating, Blackgrass for this one: "CNc1ncn(-c2cccc(C(=O)N3C[C@H](C)Oc4c(C)cccc43)c2)n1"
[reply] 90

[ask] Hello, please tell me recorded Plant response rating, Blackgrass for this one: "COc1ncn(-c2cccc(C(=O)N3C[C@H](C)Oc4c(C)cccc43)c2)n1"
[reply] 90

[ask] Hello, please tell me recorded Plant response rating, Blackgrass for this one: "Cc1ncn(-c2ccc(F)c(C(=O)N3C[C@H](C)Oc4c(C)cccc43)c2)n1"
[reply] 90

[ask] Hello, please tell me recorded Plant response rating, Blackgrass for this one: Cc1cccc2c1OC(C(F)(F)F)CN2C(=O)c1ccnc(-n2cnc(C(C)C)n2)c1 (stereo not drawn)
[reply] 90

[ask] Hello, please tell me recorded Plant response rating, Blackgrass for this one: "CC(C)c1ncn(-c2ccc(S(C)(=O)=O)c(C(=O)N3C[C@H](C)Oc4c(Cl)cccc43)c2)n1"
[reply] 0

[ask] Hello, please tell me recorded Plant response rating, Blackgrass for this one: "CCOC[C@H]1CN(C(=O)c2cc(-n3cnc(C4CCC4)n3)cc3c2OCCO3)c2cccc(Cl)c2O1"
[reply] 50

====

system: wheat; experiment: Test A preemergence; assay type: in vivo, Triticum aestivum; conditions: 500 g ai/ha, 0 to 100 scale (0 no effect, 100 complete control), 10 days
Assay metric: Plant response rating, Wheat

[ask] Hello, please tell me recorded Plant response rating, Wheat for this one: "CCc1ncn(-c2cccc(C(=O)N3C[C@H](C)Oc4c(Cl)cccc43)c2)n1"
[reply] 20

[ask] Hello, please tell me recorded Plant response rating, Wheat for this one: CC1CN(C(=O)c2cc(F)cc(-n3cncn3)c2)c2cccc(Cl)c2O1 (stereo not shown)
[reply] 20

[ask] Hello, please tell me recorded Plant response rating, Wheat for this one: O=C(c1cccc(-n2cncn2)c1)N1CC(C(F)(F)F)Oc2c(Cl)cccc21 (stereo not shown)
[reply] 50

[ask] Hello, please tell me recorded Plant response rating, Wheat for this one: "Cc1cccc2c1O[C@@H](C)CN2C(=O)c1cccc(-n2cnc(C(F)(F)F)n2)c1"
[reply] 80

[ask] Hello, please tell me recorded Plant response rating, Wheat for this one: Cc1ccc(C(=O)N2CC(C)Oc3c(Cl)cccc32)cc1-n1cncn1 (stereo not shown)
[reply] 10

[ask] Hello, please tell me recorded Plant response rating, Wheat for this one: "CCc1ccc(-n2cncn2)cc1C(=O)N1C[C@H](C)Oc2c(Cl)cccc21"
[reply] 50

[ask] Hello, please tell me recorded Plant response rating, Wheat for this one: "Cc1cccc2c1O[C@@H](C)CN2C(=O)c1cccc(-n2cnc(C(C)C)n2)c1"
[reply] 60

[ask] Hello, please tell me recorded Plant response rating, Wheat for this one: "CCc1ncn(-c2ccc(CC)c(C(=O)N3C[C@H](C)Oc4c(Cl)cccc43)c2)n1"
[reply] 90

[ask] Hello, please tell me recorded Plant response rating, Wheat for this one: "Cc1cccc2c1O[C@@H](C)CN2C(=O)c1cccc(-n2cnc(C3CC3)n2)c1"
[reply] 30

[ask] Hello, please tell me recorded Plant response rating, Wheat for this one: "CCCc1ncn(-c2cccc(C(=O)N3C[C@H](C)Oc4c(C)cccc43)c2)n1"
[reply] 30

====

system: corn; assay: Test C preemergence; type: in vivo, Zea mays; details: 500 g ai/ha, preemergence; 0 to 100 scale (0 no effect, 100 complete control)
Assign fulfilled whenever Corn plant response rating does not fall below 10; assign not fulfilled whenever it does.

[ask] Can Cc1cccc2c1O[C@@H](C)CN2C(=O)c1cccc(-n2cnc(-c3ccccc3)n2)c1 [Compound 283] be said to have Corn plant response rating at or above 10?
[reply] not fulfilled

[ask] Can Cc1nnc(-c2cccc(C(=O)N3C[C@H](C)Oc4c(Cl)cccc43)c2)o1 [Compound 355] be said to have Corn plant response rating at or above 10?
[reply] not fulfilled

[ask] Can COc1ccc(-n2cnc(C(C)C)n2)cc1C(=O)N1C[C@H](C)Oc2c(F)cccc21 [Compound 269] be said to have Corn plant response rating at or above 10?
[reply] fulfilled

[ask] Can CC(C)c1ncn(-c2cc(C(=O)N3CC(C(F)(F)F)Oc4c(Cl)cccc43)ccn2)n1 (single isomer, unassigned) [Compound 330] be said to have Corn plant response rating at or above 10?
[reply] fulfilled

[ask] Can COC[C@H]1CN(C(=O)c2cc(-n3cnc(C(C)C)n3)cc3c2OCCO3)c2cccc(Cl)c2O1 [Compound 395] be said to have Corn plant response rating at or above 10?
[reply] fulfilled

[ask] Can CC(C)(C)c1ncn(-c2cc(C(=O)N3CC(C(F)(F)F)Oc4c(Cl)cccc43)ccn2)n1 (stereo not drawn) [Compound 322] be said to have Corn plant response rating at or above 10?
[reply] fulfilled

[ask] Can COC[C@H]1CN(C(=O)c2cc(-n3cnc(C4CC4)n3)ccc2C)c2cccc(Cl)c2O1 [Compound 266] be said to have Corn plant response rating at or above 10?
[reply] fulfilled

====

system: ryegrass, Italian; experiment: Test C preemergence; assay type: in vivo, Lolium multiflorum; details: Test C, preemergence, 125 g ai/ha; 0 to 100 scale (0 no effect, 100 complete control)
Assay metric: Ryegrass, Italian plant response rating
Give a plain numeric answer without units written out.

[ask] Hello, please tell me recorded Ryegrass, Italian plant response rating for this one: Cc1ccc(-n2cnc(C3(C)COC3)n2)cc1C(=O)N1C[C@H](C)Oc2c(Cl)cccc21 [Compound 275]
[reply] 80

[ask] Hello, please tell me recorded Ryegrass, Italian plant response rating for this one: COC[C@H]1CN(C(=O)c2cc(-n3cnc(C(C)(C)C)n3)ccc2C)c2cccc(Cl)c2O1 [Compound 264]
[reply] 90

[ask] Hello, please tell me recorded Ryegrass, Italian plant response rating for this one: COC[C@H]1CN(C(=O)c2cc(-n3cncn3)ccc2OC)c2cccc(Cl)c2O1 [Compound 234]
[reply] 80

[ask] Hello, please tell me recorded Ryegrass, Italian plant response rating for this one: COc1c(C)cc(-n2cnc(C(C)C)n2)cc1C(=O)N1C[C@H](C)Oc2c(Cl)cccc21 [Compound 260]
[reply] 80

[ask] Hello, please tell me recorded Ryegrass, Italian plant response rating for this one: Cc1cccc2c1O[C@@H](C)CN2C(=O)c1cccc(-n2cnc([N+](=O)[O-])n2)c1 [Compound 306]
[reply] 30

[ask] Hello, please tell me recorded Ryegrass, Italian plant response rating for this one: COc1cc(C(=O)N2C[C@H](C)Oc3c(Cl)cccc32)cc(-n2cnc(C3CCC3)n2)c1 [Compound 214]
[reply] 80

[ask] Hello, please tell me recorded Ryegrass, Italian plant response rating for this one: CC(C)=C(C)c1ncn(-c2cccc(C(=O)N3C[C@H](C)Oc4c(C)cccc43)c2)n1 [Compound 262]
[reply] 70

[ask] Hello, please tell me recorded Ryegrass, Italian plant response rating for this one: COc1ccc(-n2cnc(C(C)C)n2)cc1C(=O)N1C[C@H](C)Oc2c1cccc2C(F)(F)F [Compound 171]
[reply] 50

[ask] Hello, please tell me recorded Ryegrass, Italian plant response rating for this one: Cc1ccc(-n2cnc(C3(C(F)(F)F)CCC3)n2)cc1C(=O)N1C[C@H](C)Oc2c(Cl)cccc21 [Compound 168]
[reply] 70

[ask] Hello, please tell me recorded Ryegrass, Italian plant response rating for this one: CCc1c(F)cc(-n2cnc(C(C)C)n2)cc1C(=O)N1C[C@H](C)Oc2c(Cl)cccc21 [Compound 152]
[reply] 70

[ask] Hello, please tell me recorded Ryegrass, Italian plant response rating for this one: CCc1ccc(-n2cnc(C(C)(C)O)n2)cc1C(=O)N1C[C@H](C)Oc2c(Cl)cccc21 [Compound 277]
[reply] 80

Ref: patent US20260262643A1
